B1: Protein piccolo, residues 1058 to 1114; numbered along this chain, Q9Y6V0 (parent)
chain: TCPLCKTELNIGSKDPPNFNTCTECKNQVCNLCGFNPTPHLTEIQEWLCLNCQTQRA

variants of: B1; experiment: abundance fitness (aPCA) (normalised: wild type 0, dead -1); higher = more abundant; growth selection in yeast, the domain comes from the species named; settings: Homo sapiens
Assign class by abundance fitness: not lower than -0.1 means fulfilled; lower than -0.1 means not fulfilled.

> print(dat)
    variant.designation  discrete.label
 1                 L32A       fulfilled
 2                 L41M   not fulfilled
 3                  L9Q   not fulfilled
 4                 N20L       fulfilled
 5                 N20Y   not fulfilled
 6                 V29M       fulfilled
 7                 N27L       fulfilled
 8                 T54Q       fulfilled
 9                 I44F       fulfilled
10                 G34Q       fulfilled
11                 C30F   not fulfilled
